biological target: DNA topoisomerase 2-alpha (Homo sapiens); assay: Inhibition of human DNA topoisomerase 2alpha-mediated relaxation of supercoiled pRYG DNA at 25 uM after 30 mins by […]
Calls of active or inactive are those of the source. The calls are words filed in the database; no cut-off is given here.
Give your call using only these classes: active, inactive

smiles-record: CCOC(=O)[C@H](C)NC(=O)/C=C\C(=O)N1C/C(=C\c2ccc([N+](=O)[O-])cc2)C(=O)/C(=C/c2ccc([N+](=O)[O-])cc2)C1
group: inactive

Query: GET /call?item= "CCOC(=O)[C@H](CC(C)C)NC(=O)/C=C\C(=O)N1C/C(=C\c2ccccc2)C(=O)/C(=C/c2ccccc2)C1" returns the recorded outcome of this test.
Response: inactive

Query: # outcome recorded in this test, key = "CCOC(=O)[C@H](Cc1ccccc1)NC(=O)/C=C\C(=O)N1C/C(=C\c2ccc([N+](=O)[O-])cc2)C(=O)/C(=C/c2ccc([N+](=O)[O-])cc2)C1"
Response: active

Query: Lab log entry: "CCOC(=O)[C@H](CCSC)NC(=O)/C=C\C(=O)N1C/C(=C\c2ccc([N+](=O)[O-])cc2)C(=O)/C(=C/c2ccc([N+](=O)[O-])cc2)C1" — outcome as called in the assay?
Response: active

Query: Recorded test call requested for "CCOC(=O)CNC(=O)/C=C\C(=O)N1C/C(=C\c2ccccc2)C(=O)/C(=C/c2ccccc2)C1"
Response: inactive

Query: Hi, do you know how "CCOC(=O)[C@H](Cc1c[nH]c2ccccc12)NC(=O)/C=C\C(=O)N1C/C(=C\c2ccc([N+](=O)[O-])cc2)C(=O)/C(=C/c2ccc([N+](=O)[O-])cc2)C1" came out in this test?
Response: active

Query: What outcome does the record of this test show for "CCOC(=O)[C@H](Cc1ccc(O)cc1)NC(=O)/C=C\C(=O)N1C/C(=C\c2ccccc2)C(=O)/C(=C/c2ccccc2)C1" ?
Response: inactive

Query: Hi, do you know how "CCOC(=O)[C@@H](NC(=O)/C=C\C(=O)N1C/C(=C\c2ccc([N+](=O)[O-])cc2)C(=O)/C(=C/c2ccc([N+](=O)[O-])cc2)C1)C(C)C" came out in this test?
Response: active

Query: Which result was noted for this compound in the test: "CCOC(=O)CNC(=O)/C=C\C(=O)N1C/C(=C\c2ccc([N+](=O)[O-])cc2)C(=O)/C(=C/c2ccc([N+](=O)[O-])cc2)C1"
Response: active

Query: What did this assay record as the result for "CCOC(=O)[C@H](Cc1ccc(O)cc1)NC(=O)/C=C\C(=O)N1C/C(=C\c2ccc([N+](=O)[O-])cc2)C(=O)/C(=C/c2ccc([N+](=O)[O-])cc2)C1" ?
Response: active

Query: Hi, do you know how "CCOC(=O)[C@H](CC(C)C)NC(=O)/C=C\C(=O)N1C/C(=C\c2ccc([N+](=O)[O-])cc2)C(=O)/C(=C/c2ccc([N+](=O)[O-])cc2)C1" came out in this test?
Response: inactive

----------
target: DNA topoisomerase 2-alpha (Homo sapiens) (UniProt P11388); experiment: Inhibition of human DNA topoisomerase 2alpha-mediated relaxation of supercoiled pRYG DNA at 50 uM after 30 mins by […]
Sequence (P11388 whole entry): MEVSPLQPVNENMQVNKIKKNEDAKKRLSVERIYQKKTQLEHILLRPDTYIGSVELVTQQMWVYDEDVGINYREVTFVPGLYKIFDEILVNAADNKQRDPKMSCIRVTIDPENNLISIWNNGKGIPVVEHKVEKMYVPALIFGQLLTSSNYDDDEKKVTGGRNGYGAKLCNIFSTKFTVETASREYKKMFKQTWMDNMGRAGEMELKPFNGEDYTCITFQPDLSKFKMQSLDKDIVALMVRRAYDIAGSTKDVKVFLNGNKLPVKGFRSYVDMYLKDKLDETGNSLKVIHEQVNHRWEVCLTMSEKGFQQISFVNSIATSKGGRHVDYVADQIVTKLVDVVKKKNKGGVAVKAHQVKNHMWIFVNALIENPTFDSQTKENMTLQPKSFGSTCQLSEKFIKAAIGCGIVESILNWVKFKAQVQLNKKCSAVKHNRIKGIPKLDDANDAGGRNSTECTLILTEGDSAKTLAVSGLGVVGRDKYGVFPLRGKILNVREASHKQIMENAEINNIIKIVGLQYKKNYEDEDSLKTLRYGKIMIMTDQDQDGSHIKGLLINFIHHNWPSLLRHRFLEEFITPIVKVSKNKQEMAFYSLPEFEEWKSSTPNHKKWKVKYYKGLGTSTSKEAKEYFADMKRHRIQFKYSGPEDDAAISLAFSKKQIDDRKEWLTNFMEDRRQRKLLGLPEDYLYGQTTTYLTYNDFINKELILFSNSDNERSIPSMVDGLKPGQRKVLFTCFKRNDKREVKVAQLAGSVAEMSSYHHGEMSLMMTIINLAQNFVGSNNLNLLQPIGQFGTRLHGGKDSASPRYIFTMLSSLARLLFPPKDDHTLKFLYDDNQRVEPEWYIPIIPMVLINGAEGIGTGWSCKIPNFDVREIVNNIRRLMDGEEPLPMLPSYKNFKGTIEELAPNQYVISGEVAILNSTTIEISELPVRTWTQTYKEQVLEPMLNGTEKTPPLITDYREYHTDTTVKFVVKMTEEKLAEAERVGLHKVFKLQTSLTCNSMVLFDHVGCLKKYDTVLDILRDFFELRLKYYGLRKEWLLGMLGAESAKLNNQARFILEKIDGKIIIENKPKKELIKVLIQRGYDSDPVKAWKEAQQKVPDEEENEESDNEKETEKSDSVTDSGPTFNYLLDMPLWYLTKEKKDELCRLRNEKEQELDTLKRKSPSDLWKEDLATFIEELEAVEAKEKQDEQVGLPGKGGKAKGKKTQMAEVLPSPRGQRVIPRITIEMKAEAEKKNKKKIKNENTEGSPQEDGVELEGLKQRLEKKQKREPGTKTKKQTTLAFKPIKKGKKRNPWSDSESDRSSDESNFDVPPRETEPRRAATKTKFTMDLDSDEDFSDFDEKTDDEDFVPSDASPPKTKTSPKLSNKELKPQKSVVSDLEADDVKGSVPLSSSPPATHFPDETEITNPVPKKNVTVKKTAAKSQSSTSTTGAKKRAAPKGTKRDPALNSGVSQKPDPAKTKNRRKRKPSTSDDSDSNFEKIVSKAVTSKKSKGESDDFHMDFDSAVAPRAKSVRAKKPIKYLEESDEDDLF
Calls of active or inactive are those of the source. No cut-off for these calls is given here.
Return exactly one item of yes (1) (active), no (0) (inactive)

Example entries and their recorded answers appear below.
smiles-record: CCOC(=O)[C@H](CC(C)C)NC(=O)/C=C\C(=O)N1C/C(=C\c2ccccc2)C(=O)/C(=C/c2ccccc2)C1
group: no (0)
--
smiles-record: CCOC(=O)[C@@H](NC(=O)/C=C\C(=O)N1C/C(=C\c2ccc([N+](=O)[O-])cc2)C(=O)/C(=C/c2ccc([N+](=O)[O-])cc2)C1)C(C)C
group: yes (1)
--
smiles-record: CCOC(=O)[C@H](Cc1c[nH]c2ccccc12)NC(=O)/C=C\C(=O)N1C/C(=C\c2ccc([N+](=O)[O-])cc2)C(=O)/C(=C/c2ccc([N+](=O)[O-])cc2)C1
group: yes (1)
--
smiles-record: CCOC(=O)[C@H](Cc1ccc(O)cc1)NC(=O)/C=C\C(=O)N1C/C(=C\c2ccccc2)C(=O)/C(=C/c2ccccc2)C1
group: no (0)
--
smiles-record: CCOC(=O)[C@H](Cc1ccc(O)cc1)NC(=O)/C=C\C(=O)N1C/C(=C\c2ccc([N+](=O)[O-])cc2)C(=O)/C(=C/c2ccc([N+](=O)[O-])cc2)C1
group: yes (1)
--
smiles-record: CCOC(=O)[C@H](CC(C)C)NC(=O)/C=C\C(=O)N1C/C(=C\c2ccc([N+](=O)[O-])cc2)C(=O)/C(=C/c2ccc([N+](=O)[O-])cc2)C1
group: no (0)

Query: How did this test come out for "CCOC(=O)CNC(=O)/C=C\C(=O)N1C/C(=C\c2ccc([N+](=O)[O-])cc2)C(=O)/C(=C/c2ccc([N+](=O)[O-])cc2)C1" ?
Response: yes (1)

Query: Please state the recorded outcome for this compound: "CCOC(=O)CNC(=O)/C=C\C(=O)N1C/C(=C\c2ccccc2)C(=O)/C(=C/c2ccccc2)C1"
Response: no (0)

Query: Short answer needed: outcome of this test for "CCOC(=O)[C@H](C)NC(=O)/C=C\C(=O)N1C/C(=C\c2ccc([N+](=O)[O-])cc2)C(=O)/C(=C/c2ccc([N+](=O)[O-])cc2)C1" ?
Response: yes (1)

Query: In this assay, the call recorded for "CCOC(=O)[C@H](Cc1ccccc1)NC(=O)/C=C\C(=O)N1C/C(=C\c2ccc([N+](=O)[O-])cc2)C(=O)/C(=C/c2ccc([N+](=O)[O-])cc2)C1" was what?
Response: yes (1)

Query: Each compound tested received a call. Report the one for "CCOC(=O)[C@H](CCSC)NC(=O)/C=C\C(=O)N1C/C(=C\c2ccc([N+](=O)[O-])cc2)C(=O)/C(=C/c2ccc([N+](=O)[O-])cc2)C1" .
Response: yes (1)
